Each recorded value in this set is attributed to patent US20060089395A1.

System: NF-κ B
experimental details: Inhibitory activity of NF-κ B activation, luciferase reporter assay in HepG2 under TNF-α stimulation
Assay type: cell-based, human
test settings: Homo sapiens; 10 μg/mL; HepG2, TNF-α (40 ng/ml), 4 hours; read-out: Inhibitory Ratio of NF-κ B Activation(%) Drug Concentration 10 μg/mL
property measured: inhibition at 10 µg/mL
// return the numeric value with its unit appended

Worked cases, answers included:
Cc1nc(NC(=O)c2cc(Br)ccc2O)sc1-c1ccc(F)cc1 [Compound No. 193]: 82%
O=C(Nc1cc(C(F)(F)F)cc(C(F)(F)F)c1)c1cc(I)ccc1O [Compound No. 7]: 85.4%
CCOC(=O)c1sc(NC(=O)c2cc(Br)ccc2O)nc1C(C)(C)C [Compound No. 202]: 92.4%
CC(C)(C)c1nc(NC(=O)c2cc(Br)ccc2O)sc1Br [Compound No. 186]: 98.7%
O=C(Nc1cc(C(F)(F)F)ccc1Cl)c1cc(Cl)ccc1O [Compound No. 88]: 97.1%
CCc1nc(NC(=O)c2cc(Br)ccc2O)oc1CC [Compound No. 234]: 63.1%
O=C(Nc1cc(C(F)(F)F)cc(C(F)(F)F)c1)c1cc([N+](=O)[O-])ccc1O [Compound No. 8]: 99.2%
CCOC(=O)c1sc(NC(=O)c2cc(-c3cccs3)ccc2O)nc1-c1ccccc1 [Compound No. 230]: 84.8%
O=C(Nc1cc(C(F)(F)F)cc(C(F)(F)F)c1)c1cccc(-c2ccccc2)c1O [Compound No. 249]: 90.7%
Cc1nc(-c2ccc(O)c(C(=O)Nc3cc(C(F)(F)F)cc(C(F)(F)F)c3)c2)cs1 [Compound No. 30]: 95.3%

Field: next molecule
For CCOC(=O)c1sc(NC(=O)c2cc(Br)ccc2O)nc1-c1ccccc1 [Compound No. 216] , write its inhibition at 10 µg/mL. 82.8%
